Provide the reported inhibition at 10 µM of each item.
TEST_TARGET: β5 catalytic site of the 20 S proteasome (Homo sapiens, UniProt P28074)
Construct: endogenous in cells; host or cells: MCF-7
PROCEDURE_DETAILS: Proteasome activity of the β5 catalytic site in MCF-7 cells (Suc-Leu-Leu-Val-Tyr-AMC substrate)
Format: cell-based
MEASUREMENT_CONDITIONS: MCF7; MCF-7 cells treated 6 h; 10000 nM; read-out: inhibition of β5 activity
Unit % implied. Number only.

inhibition at 10 µM lookup needed for `CC(C)C[C@H](NC(=O)[C@H](Cc1ccccc1)NC(=O)c1cnccn1)B(O)O` , thanks.
100

inhibition at 10 µM lookup needed for `CC(C)C[C@H](NC(=O)CNC(=O)c1cc(Cl)ccc1Cl)B(O)O` , thanks.
33

inhibition at 10 µM lookup needed for `CC(C)C[C@H](NC(=O)[C@@H](NC(=O)c1cccc(-c2ccccc2)n1)[C@@H](C)O)B(O)O` , thanks.
100

inhibition at 10 µM lookup needed for `CC(C)C[C@H](NC(=O)CNC(=O)c1cc(Cl)ccc1Cl)B1OC(=O)C(CC(=O)O)(CC(=O)O)O1` , thanks.
51

====

System: MDA-MB-436 cells
PROCEDURE_DETAILS: Resazurin-based cell viability assay, monotherapy drug screen
Set-up: species or system human
MEASUREMENT_CONDITIONS: MDA-MB-436; drug efficacy at highest tested dose (<0 cytotoxic, 0 cytostatic, >0 partial growth inhibition)
Residues, ends and D or L forms follow the SMILES beside them. *: point of attachment. Cbz = O=C(OCc1ccccc1)*
QUANTITY_MEASURED: GRmax
// response body must contain only the number

GRmax lookup needed for `O=[N+]([O-])c1ccc(S(=O)(=O)N2CCN(c3ccnc4cc(Cl)ccc34)CC2)c([N+](=O)[O-])c1` , thanks.
1.0

GRmax lookup needed for COc1cccc2c1C(=O)c1c(O)c3c(c(O)c1C2=O)C[C@@](O)(C(=O)CO)C[C@@H]3O[C@H]1C[C@H](N)[C@@H](O)[C@H](C)O1 [Epirubicin] , thanks.
0.26

GRmax lookup needed for `N.N.O=C([O-])C1(C(=O)[O-])CCC1.[Pt+2]` , thanks.
0.41

GRmax lookup needed for CC(C)C[C@@H](C=O)NC(=O)[C@H](CC(C)C)NC(=O)[C@H](CC(C)C)NC(=O)OCc1ccccc1 [MG 132, MG-132] (Cbz-Leu-Leu-Leu-aldehyde) , thanks.
−0.88

GRmax lookup needed for `CC1=C(O)C(=O)C=C2C1=CC=C1[C@@]2(C)CC[C@@]2(C)[C@@H]3C[C@](C)(C(=O)O)CC[C@]3(C)CC[C@]12C` , thanks.
−0.63

GRmax lookup needed for `CC(C)C[C@H](NC(=O)CNC(=O)c1cc(Cl)ccc1Cl)B1OC(=O)C(CC(=O)O)(CC(=O)O)O1` , thanks.
−0.82

GRmax lookup needed for `CC(=O)O[C@@]12CO[C@@H]1C[C@H](O)[C@@]1(C)C(=O)[C@H](O)C3=C(C)[C@@H](OC(=O)[C@H](O)[C@@H](NC(=O)OC(C)(C)C)c4ccccc4)C[C@@](O)([C@@H](OC(=O)c4ccccc4)[C@H]21)C3(C)C` , thanks.
−0.81

GRmax lookup needed for `CC(=O)O[C@H]1C(=O)[C@@]2(C)[C@H]([C@H](OC(=O)c3ccccc3)[C@]3(O)C[C@H](OC(=O)[C@H](O)[C@@H](NC(=O)c4ccccc4)c4ccccc4)C(C)=C1C3(C)C)[C@]1(OC(C)=O)CO[C@@H]1C[C@@H]2O` , thanks.
−0.97

GRmax lookup needed for `COC[C@H](NC(=O)c1cnc(C)s1)C(=O)N[C@@H](COC)C(=O)N[C@@H](Cc1ccccc1)C(=O)[C@@]1(C)CO1` , thanks.
−0.93

GRmax lookup needed for `CC(C)C[C@H](NC(=O)[C@@H](NC(=O)c1cccc(-c2ccccc2)n1)[C@@H](C)O)B(O)O` , thanks.
−0.84

GRmax lookup needed for `CC(C)C[C@H](NC(=O)CNC(=O)c1cc(Cl)ccc1Cl)B(O)O` , thanks.
−0.78

GRmax lookup needed for `COc1cccc2c1C(=O)c1c(O)c3c(c(O)c1C2=O)C[C@@](O)(C(=O)CO)C[C@@H]3O[C@H]1C[C@H](N)[C@H](O)[C@H](C)O1` , thanks.
0.26

GRmax lookup needed for `[NH2][Pt]1([NH2])[O]CC(=O)[O]1` , thanks.
0.22

====

Provide the reported AUC of each item.
System: MCF-10A cells
PROCEDURE_DETAILS: Resazurin-based cell viability assay, monotherapy drug screen
Set-up: species or system human
MEASUREMENT_CONDITIONS: area under the dose response curve, 24 h
Residues, ends and D or L forms follow the SMILES beside them. *: point of attachment. Cbz = O=C(OCc1ccccc1)*
// response body must contain only the number

AUC lookup needed for CC(C)C[C@@H](C=O)NC(=O)[C@H](CC(C)C)NC(=O)[C@H](CC(C)C)NC(=O)OCc1ccccc1 [MG 132, MG-132] (Cbz-Leu-Leu-Leu-aldehyde) , thanks.
0.78

AUC lookup needed for CC(C)C[C@H](NC(=O)CNC(=O)c1cc(Cl)ccc1Cl)B1OC(=O)C(CC(=O)O)(CC(=O)O)O1 [MLN 9708, MLN-9708] , thanks.
0.72

AUC lookup needed for N.N.O=C([O-])C1(C(=O)[O-])CCC1.[Pt+2] [Carboplatin] , thanks.
0.90

AUC lookup needed for O=[N+]([O-])c1ccc(S(=O)(=O)N2CCN(c3ccnc4cc(Cl)ccc34)CC2)c([N+](=O)[O-])c1 [VR-23] , thanks.
1.0

AUC lookup needed for CCCc1ccc(OCC(=O)N(Cc2nc(-c3cccnc3)no2)C(C)C)cc1 [PI-1840] , thanks.
1.0

AUC lookup needed for COc1cccc2c1C(=O)c1c(O)c3c(c(O)c1C2=O)C[C@@](O)(C(=O)CO)C[C@@H]3O[C@H]1C[C@H](N)[C@@H](O)[C@H](C)O1 [Epirubicin] , thanks.
0.69

AUC lookup needed for CC(=O)O[C@@]12CO[C@@H]1C[C@H](O)[C@@]1(C)C(=O)[C@H](O)C3=C(C)[C@@H](OC(=O)[C@H](O)[C@@H](NC(=O)OC(C)(C)C)c4ccccc4)C[C@@](O)([C@@H](OC(=O)c4ccccc4)[C@H]21)C3(C)C [Docetaxel] , thanks.
0.63

AUC lookup needed for CC(C)C[C@H](NC(=O)CNC(=O)c1cc(Cl)ccc1Cl)B(O)O [MLN 2238, MLN-2238] , thanks.
0.72

====

Tested on: CAL-148 cells
PROCEDURE_DETAILS: Resazurin-based cell viability assay, monotherapy drug screen
Design: species or system human
MEASUREMENT_CONDITIONS: CAL-148; drug efficacy at highest tested dose (<0 cytotoxic, 0 cytostatic, >0 partial growth inhibition)
Residues, ends and D or L forms follow the SMILES beside them. *: point of attachment. Cbz = O=C(OCc1ccccc1)*
Provide the reported GRmax of each item.
// response body must contain only the number

GRmax lookup needed for CC(=O)O[C@@]12CO[C@@H]1C[C@H](O)[C@@]1(C)C(=O)[C@H](O)C3=C(C)[C@@H](OC(=O)[C@H](O)[C@@H](NC(=O)OC(C)(C)C)c4ccccc4)C[C@@](O)([C@@H](OC(=O)c4ccccc4)[C@H]21)C3(C)C [Docetaxel] , thanks.
0.74

GRmax lookup needed for COC[C@H](NC(=O)c1cnc(C)s1)C(=O)N[C@@H](COC)C(=O)N[C@@H](Cc1ccccc1)C(=O)[C@@]1(C)CO1 [Oprozomib] , thanks.
0.14

GRmax lookup needed for N.N.[Cl][Pt][Cl] [Cisplatin] , thanks.
−0.97

GRmax lookup needed for [NH2][Pt]1([NH2])[O]CC(=O)[O]1 [Nedaplatin] , thanks.
−0.93

GRmax lookup needed for CC[C@H](C)[C@H](NC(=O)[C@H]([C@@H](C)CC)N(C)C(C)=O)C(=O)N[C@H](C(=O)N[C@@H](CC(C)C)C(=O)[C@@]1(C)CO1)[C@@H](C)O [Epoxomicin] , thanks.
0.11

GRmax lookup needed for CC(C)C[C@H](NC(=O)[C@H](CCc1ccccc1)NC(=O)CN1CCOCC1)C(=O)N[C@@H](Cc1ccccc1)C(=O)N[C@@H](CC(C)C)C(=O)[C@@]1(C)CO1 [Carfilzomib] , thanks.
−0.01

GRmax lookup needed for CC(C)C[C@@H](C=O)NC(=O)[C@H](CC(C)C)NC(=O)[C@H](CC(C)C)NC(=O)OCc1ccccc1 [MG 132, MG-132] (Cbz-Leu-Leu-Leu-aldehyde) , thanks.
0.22

====

System: MCF-10A cells
PROCEDURE_DETAILS: Resazurin-based cell viability assay, monotherapy drug screen
Design: species or system human
MEASUREMENT_CONDITIONS: Homo sapiens, 24 h
Description: Eighteen pharmaceutical compounds were purchased from Selleckchem. […] The stock solutions were stored at -80°C. […] New drug plates were prepared for each drug screen. […]
Residues, ends and D or L forms follow the SMILES beside them. *: point of attachment. Cbz = O=C(OCc1ccccc1)*
QUANTITY_MEASURED: IC50 (nM)
Unit nM implied. Number only.

IC50 lookup needed for CC1=C(O)C(=O)C=C2C1=CC=C1[C@@]2(C)CC[C@@]2(C)[C@@H]3C[C@](C)(C(=O)O)CC[C@]3(C)CC[C@]12C [Celastrol] , thanks.
1600

IC50 lookup needed for CC(C)C[C@@H](C=O)NC(=O)[C@H](CC(C)C)NC(=O)[C@H](CC(C)C)NC(=O)OCc1ccccc1 [MG 132, MG-132] (Cbz-Leu-Leu-Leu-aldehyde) , thanks.
940
